System: SK-MEL-28
Experimental details: NCI tumour cell line growth inhibition, 48 h
Calls of active or inactive are those of the source. No stated cut-off is given here; in the data, active = GI50 up to about 1.1 µM and inactive = higher. Starred links: 1 amine or outer side, 2 acyl side, 3 side chain; linkers in the order of their positions; H or OH if unused. Non-standard residues stand in square brackets, D forms with d. Residues, ends and D or L forms follow the SMILES beside them. ξ: configuration not given here. Ile(3ξ) = CCC(C)[C@H](N)C(=O)O; X35 = C=CCC(O[*:1])C(=O)[*:2]; NMeV = CN[C@H](C(=O)O)C(C)C; NMeA = CN[C@@H](C)C(=O)O; βAla = NCCC(=O)O
Classes used: YES (active), NO (inactive)

# Compound, Assigned category
data = [
    ("CCOC1=C2N=C(Cc3ccccc3F)N=C2C(=O)c2ccccc21", "NO"),
    ("Cc1ccc(S(=O)(=O)ON2C(=O)c3c(N)c(C#N)c(-c4ccccc4)c(-c4ccccc4)c3C2=O)cc1", "NO"),
    ("CC(=O)OC1CCn2c1nc1c2C(=O)C=C(N2CC2)C1=O (stereo unspecified)", "YES"),
    ("Nc1nc(Cl)cc(NCC2(CO)CCCC2)n1", "NO"),
    ("Cn1nc(-c2ccccc2)c2c(-c3ccccc3)c3cc(Cl)ccc3nc21", "NO"),
    ("CCOP(=O)(OCC)C(C(=O)OC)C(=O)C(=O)Nc1ccc(Cl)cc1Cl (stereo unspecified)", "NO"),
    ("CCCCc1c2c(nc3c1CCC/C3=C\\c1ccccc1)C(=O)C(CN(C)C)CC2 (stereo unspecified)", "NO"),
    ("C=CCC1OC(=O)CCNC(=O)[C@H](C)N(C)C(=O)[C@H](C(C)C)N(C)C(=O)[C@H](C(C)CC)NC(=O)[C@@H]2CCCN2C1=O (stereo partly specified) (cyclo([Ile(3ξ)][NMeV][NMeA][βAla][X35]P))", "NO"),
    ("O=C(O)C(=Cc1ccnc2ccccc12)C(=O)O", "NO"),
    ("COc1cc(CC(=O)O)c([N+](=O)[O-])cc1OC", "NO"),
    ("CC(C)(C)OC(=O)C1/C(=C/CBr)CN1C(=O)OC(C)(C)C (stereo unspecified)", "NO"),
    ("Cc1ccccc1C(CCCO)C(=O)O (stereo unspecified)", "NO"),
    ("CC(C)(CCCCC(C)(C)C1NC(=O)N1)C1NC(=O)N1", "NO"),
    ("NCC(=O)NC1(c2cc3ccccc3s2)CCCCC1", "NO"),
    ("c1ccc(Nc2nnc(-c3nsc4ccccc34)o2)cc1", "NO"),
    ("O=C(O)c1ccc(N/C(=C(/C(Cl)=C(Cl)Cl)[N+](=O)[O-])n2nnc3ccccc32)cc1", "NO"),
    ("Cc1c(C(=O)C/C(=N/NC(=O)c2ccccc2)C(=O)Nc2ccc(Cl)cc2)[n+]([O-])c2ccccc2[n+]1[O-]", "NO"),
    ("Cc1ccc(S(=O)(=O)N/N=C/c2oc(-c3cccc([N+](=O)[O-])c3)c(-c3cccc([N+](=O)[O-])c3)c2[N+](=O)[O-])cc1", "NO"),
    ("O=c1c2cc(I)ccc2nc(SCc2nncs2)n1Cc1ccccc1", "NO"),
    ("COc1cc2c(cc1OC)C1Cc3cc(OC)c(OC)cc3C(C2)O1", "NO"),
    ("N#Cc1nc(-c2cccs2)oc1N", "NO"),
]
